The reported measurements were obtained from PubChem BioAssay AID488847.

SYSTEM_NAME: Beta-adrenergic receptor kinase 1 (Homo sapiens) (UniProt P25098)
Sequence (P25098 whole entry, looked up): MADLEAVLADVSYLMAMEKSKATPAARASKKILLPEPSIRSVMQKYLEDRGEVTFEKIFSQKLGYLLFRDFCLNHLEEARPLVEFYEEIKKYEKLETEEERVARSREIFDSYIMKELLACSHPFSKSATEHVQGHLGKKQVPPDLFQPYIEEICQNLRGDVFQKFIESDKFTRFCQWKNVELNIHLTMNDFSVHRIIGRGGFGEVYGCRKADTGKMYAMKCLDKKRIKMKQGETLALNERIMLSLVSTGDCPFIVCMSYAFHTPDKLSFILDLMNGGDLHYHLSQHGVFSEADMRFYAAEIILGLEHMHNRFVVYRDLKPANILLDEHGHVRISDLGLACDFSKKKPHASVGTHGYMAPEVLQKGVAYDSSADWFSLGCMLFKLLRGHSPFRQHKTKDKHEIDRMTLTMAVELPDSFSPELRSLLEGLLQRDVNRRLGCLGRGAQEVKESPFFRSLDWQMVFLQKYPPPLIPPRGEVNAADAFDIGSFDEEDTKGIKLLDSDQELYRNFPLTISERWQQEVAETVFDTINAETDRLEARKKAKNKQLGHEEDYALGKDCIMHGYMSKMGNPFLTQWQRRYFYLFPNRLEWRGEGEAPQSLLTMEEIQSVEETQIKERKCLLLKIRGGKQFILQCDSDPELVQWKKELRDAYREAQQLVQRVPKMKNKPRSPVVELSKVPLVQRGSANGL
METHOD: compounds blocking aptamer binding on GRK2 – biochemical, human GRK2, bead flow cytometry, HTS, primary screen (AID 488847);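 also: median bead fluorescence of bound FAM aptamer so fluorescent compounds give negative values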
MEASUREMENT_SETUP: FAM-aptamer displacement from GRK2, at 10 µM, stronger effect = higher value
Among all 330,000 compounds or so, about 1,900 (0.58%) were called active. The entries come from a sample that favours actives as a whole.
Provide the recorded inhibition of aptamer binding for the entries that follow.
Give bare numbers, in %.

Example cases with answers are listed next.
CC(=O)N1CC[n+]2c(-c3ccc([N+](=O)[O-])cc3)csc21 | 92
COC(=O)c1c(C)[nH]c(C)c1-c1ccc([N+](=O)[O-])cc1 | 0
Cc1ccc2[nH]c(=O)c(-c3nc4c(C)cccn4c3NCc3ccco3)cc2c1 | 0
Nc1ccc2nc3c(=O)[nH]c(=S)[nH]c3nc2c1 | 70
COc1cc(OC)cc(C(=O)OCC(=O)Nc2sccc2C(N)=O)c1 | 0
CCOC(=O)C1=C(N)N(c2ccc(C)cc2)C2=C(C(=O)CCC2)C1c1cccs1 (stereo unspecified) | 45
CC1=CC(C)(C)NC(=S)N1NC(=O)c1ccccc1Cl | 1
C=CCOc1ccc(/C=C2\SC(=S)N(CCC(=O)O)C2=O)cc1 | 0

# per-item lookup of inhibition of aptamer binding; items listed below
1. CCCCn1c(N)c(N(CCC(C)C)C(=O)c2ccc([N+](=O)[O-])o2)c(=O)[nH]c1=O
2. Cc1ccc(/C=C2/SC(=S)N(CCC(=O)NCCCN3CCOCC3)C2=O)cc1
3. CCOc1ccc(S(=O)(=O)Nc2cccc(C(=O)NCC3(N4CCCCC4)CCCCC3)c2)cc1

55
5
0

Report inhibition of aptamer binding for every entry below.
1. CN(CC(=O)Nc1ccc(C(N)=O)cc1)S(=O)(=O)c1ccc2c(c1)OCCO2
2. O=C1CCCCC1Sc1ccc(Cl)cc1[N+](=O)[O-] (stereo unspecified)

0
1

Below are 5 compounds. Give each one its inhibition of aptamer binding.
1. CCOC(=O)c1cc2c(n(-c3ccc(C)cc3)c1=O)CCCC2=O
2. COc1cccc2c1OCC(C(=O)NCc1ccc(Cl)cc1Cl)=C2
3. OC(COc1ccc2c(c1)CCC2)CN1CCN(c2cccc(Cl)c2)CC1 (stereo unspecified)
4. O=C(NCc1cccc(Cl)c1)C1CCC(=O)N(C2CC2)C1 (stereo unspecified)
5. COc1ccc(C2CC(c3ccc([N+](=O)[O-])cc3)=NN2C(C)=O)cc1 (stereo unspecified)

[0, 0, 0, 30, 0]

Take each entry in turn and give its inhibition of aptamer binding.
1. COC(=O)c1ccc(C)c(NC(=O)C2CC(=O)N(C3CCCC(C)C3C)C2)c1 (stereo unspecified)
2. CCc1cc2c(=O)c(-c3nc4ccccc4n3C)c(CCCC(=O)O)oc2cc1OC(=O)C(C)(C)C
3. Cc1ccc(-c2nn(-c3ccccc3)cc2/C=C2\SC(=S)N(CCCCCC(=O)O)C2=O)o1

1: 63; 2: 1; 3: 48
